Biological target: T1, human SLC34A2 (human, UniProt O95436 1-690)
T1 construct: whole, on cells; also called human solute carrier 34 A2; NaPi2b
T1 sequence (looked up): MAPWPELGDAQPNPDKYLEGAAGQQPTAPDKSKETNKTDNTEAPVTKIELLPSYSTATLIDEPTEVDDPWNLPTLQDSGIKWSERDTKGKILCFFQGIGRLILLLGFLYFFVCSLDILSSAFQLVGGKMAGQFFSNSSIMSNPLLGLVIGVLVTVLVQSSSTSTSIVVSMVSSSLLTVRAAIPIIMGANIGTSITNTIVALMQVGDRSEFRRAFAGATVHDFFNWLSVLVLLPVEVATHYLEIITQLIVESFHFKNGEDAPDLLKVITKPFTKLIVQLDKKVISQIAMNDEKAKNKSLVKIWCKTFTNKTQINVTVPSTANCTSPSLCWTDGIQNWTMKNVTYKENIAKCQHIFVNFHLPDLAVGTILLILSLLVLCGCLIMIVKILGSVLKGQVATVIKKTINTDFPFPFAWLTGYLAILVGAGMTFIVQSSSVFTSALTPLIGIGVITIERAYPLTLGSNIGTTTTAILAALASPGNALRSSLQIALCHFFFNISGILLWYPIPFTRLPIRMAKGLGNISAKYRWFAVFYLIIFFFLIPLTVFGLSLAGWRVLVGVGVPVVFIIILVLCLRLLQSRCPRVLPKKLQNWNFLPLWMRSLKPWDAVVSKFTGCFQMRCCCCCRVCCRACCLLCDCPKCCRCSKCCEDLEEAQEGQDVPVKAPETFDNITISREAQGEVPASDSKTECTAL
Test: FACS, OVCAR3 cells
Lab note: compare Top (MFI) against 30000 MFI. Equal or greater, write 1. Smaller, write 0.

Solved cases (5 shown):
63A11D5B4.p1.z14 hIgG1 (antibody, V domains shown, humanized hIgG1) VH: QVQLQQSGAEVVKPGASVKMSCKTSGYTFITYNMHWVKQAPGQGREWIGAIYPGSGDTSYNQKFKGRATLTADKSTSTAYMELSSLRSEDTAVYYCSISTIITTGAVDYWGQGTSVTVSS VL: DIQMTQSPSSLSTSVGDRVTITCKASQDVGTAVAWYQQKPGKSPKLLIYWTSTRHTGVPSRFSGSGSGTDFTLIISSLQPEDVATYYCQQYSRIPLTFGGGTKVEIK ... 1
63A11D5B4.p1.z7 hIgG1 (antibody, V domains shown, humanized hIgG1) VH: QVQLVQSGAEVKKPGASVKVSCKTSGYTFITYNMHWVRQAPGQGLEWIGAIYPGSGDTSYNQKFKGRVTMTADTSTSTVYMELSSLRSEDTAVYYCSISTIITTGAVDYWGQGTLVTVSS VL: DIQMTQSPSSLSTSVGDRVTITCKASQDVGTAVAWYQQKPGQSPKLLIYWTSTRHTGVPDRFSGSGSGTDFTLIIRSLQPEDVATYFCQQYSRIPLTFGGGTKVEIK ... 1
63A11D5B4.p1.z8 hIgG1 (antibody, V domains shown, humanized hIgG1) VH: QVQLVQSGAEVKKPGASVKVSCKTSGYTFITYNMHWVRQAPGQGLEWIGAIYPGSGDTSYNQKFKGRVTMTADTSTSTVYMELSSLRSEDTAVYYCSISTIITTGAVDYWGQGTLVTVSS VL: DIVMTQSPSSLSTSVGDRVTITCKASQDVGTAVAWYQQKPGQSPKLLIYWTSTRHTGVPDRFTGSGSGTDFTLIIRSLQPEDVATYFCQQYSRIPLTFGSGTKVEIK ... 0
63A11D5B4.p1.z11 hIgG1 (antibody, V domains shown, humanized hIgG1) VH: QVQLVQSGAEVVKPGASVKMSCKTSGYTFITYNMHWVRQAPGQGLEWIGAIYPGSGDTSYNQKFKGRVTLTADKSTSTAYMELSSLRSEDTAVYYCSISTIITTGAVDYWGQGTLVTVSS VL: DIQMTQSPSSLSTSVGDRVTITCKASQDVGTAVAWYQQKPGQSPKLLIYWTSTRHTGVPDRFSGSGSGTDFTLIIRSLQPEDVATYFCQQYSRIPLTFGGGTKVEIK ... 0
63A11D5B4.p1.z1 hIgG1 (antibody, V domains shown, humanized hIgG1) VH: QVQLVQSGAEVKKPGASVKVSCKASGYTFITYNMHWVRQAPGQGLEWMGAIYPGSGDTSYNQKFKGRVTMTRDTSTSTVYMELSSLRSEDTAVYYCASSTIITTGAVDYWGQGTLVTVSS VL: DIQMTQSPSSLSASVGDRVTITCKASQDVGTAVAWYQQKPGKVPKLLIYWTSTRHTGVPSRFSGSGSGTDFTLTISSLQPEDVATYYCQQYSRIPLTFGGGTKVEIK ... 0

Please indicate if the recorded Top (MFI) for 63A11D5B4.p1.z13 hIgG1 (antibody, V domains shown, humanized hIgG1) VH: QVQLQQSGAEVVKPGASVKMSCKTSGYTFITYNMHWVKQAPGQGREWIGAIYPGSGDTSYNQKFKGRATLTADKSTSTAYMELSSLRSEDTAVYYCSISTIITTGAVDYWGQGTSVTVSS VL: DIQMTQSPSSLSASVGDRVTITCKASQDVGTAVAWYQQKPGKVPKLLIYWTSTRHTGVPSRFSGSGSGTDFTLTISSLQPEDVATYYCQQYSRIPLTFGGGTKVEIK meets or exceeds 30000 MFI.
1

Please indicate if the recorded Top (MFI) for 63A11D5B4.p1.z9 hIgG1 (antibody, V domains shown, humanized hIgG1) VH: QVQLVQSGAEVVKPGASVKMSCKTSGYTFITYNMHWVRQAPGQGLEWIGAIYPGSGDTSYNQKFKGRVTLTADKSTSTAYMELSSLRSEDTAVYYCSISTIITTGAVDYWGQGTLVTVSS VL: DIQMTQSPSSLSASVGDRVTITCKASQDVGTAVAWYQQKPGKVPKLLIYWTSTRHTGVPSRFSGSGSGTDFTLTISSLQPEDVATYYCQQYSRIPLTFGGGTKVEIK meets or exceeds 30000 MFI.
0

Please indicate if the recorded Top (MFI) for 63A11D5B4.p1.z12 hIgG1 (antibody, V domains shown, humanized hIgG1) VH: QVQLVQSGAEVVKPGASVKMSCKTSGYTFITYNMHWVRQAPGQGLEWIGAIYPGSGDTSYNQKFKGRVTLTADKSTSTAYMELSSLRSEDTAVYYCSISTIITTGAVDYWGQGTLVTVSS VL: DIVMTQSPSSLSTSVGDRVTITCKASQDVGTAVAWYQQKPGQSPKLLIYWTSTRHTGVPDRFTGSGSGTDFTLIIRSLQPEDVATYFCQQYSRIPLTFGSGTKVEIK meets or exceeds 30000 MFI.
1
